Reference source: patent US20230357364A1

Molecular target: SARS-CoV-2 RBD (RBD-2) (SARS-CoV-2)
Test: ELISA
Consider the following binders; for each one, report its EC50.
One number for each entry, in µg/mL.

Look over these answered cases.
The binder identified as L12.bP10G07 (antibody, V domains shown, human IgG1) VH: EVQLVQSGAEVKKPGASVKVSCKASGYIYSGYYMHWVRQAPGQGLEWMGWISPDSGGTNYAQRFQGRVTMTRDTSTTTAYMELSRLRSDDTAMYYCARGPRYSGTYFDYWGQGTLVTVSS VL: QTVVTQPASVSGSPGQSITISCTGTSSDVGGYNYVSWYQQHPDKAPKLIIYDVSNRPSGVSNRFSGSKSGNTASLTISGLQAEDEAAYYCSSYTSSSTQVFGGGTKLTVL registered its EC50 at 1.41

Noted for L6.dP04E05 (antibody, V domains shown, human IgG1) VH: EVQLVESGGGLVQPGRSLRLSCAASGFTFDDYAMHWVRQAPGKGLEWVSGISWNSDNIGYADSVKGRFTVSRDNAKNSLYLQMNSLRAEDTALYYCTKDIHRKNDYYDILTGYYRVRYYYYAMDVWGQGTTVTVSS VL: QSVLTQPPSASGSPGQSVTISCTGTSSDAGGYNYVSWYQQHPGKAPKLMIYEVIKRPSGVPDRFSGSKSGNTASLTVSGLQAEDEADYYCSSFAGTSVVFGGGTKLTVL : its EC50 reads 0.018

The binder identified as L6.dP02E05 (antibody, V domains shown, human IgG1) VH: QVQLVQSGSELKKPGASVKVSCKASGYTFATYALNWVRQAPGQGLEWMGWVNTNTGSPTYAQGFTGRFVFSFDTSVSTAYLQIRTLKAEDTAVYYCAVYYYDSGSPGWFDPWGQGTLVTVSS VL: DIQLTQSPSSLSASVGDRVTITCRASQTASSYLNWYQQKPGKAPNLLIYAASSLQSGVPSRFSGSGSVTDFTLTISSLQPEDFATYYCQQSYSTPPTFGQGTKVDIK registered its EC50 at 0.015

Would you mind giving EC50 for every binder in the list below?
1. L12.bP11A11 (antibody, V domains shown, human IgG1) VH: QVQLVQSGAEVKKPGASVKVSCKASGYTFTGYYMHWVRQAPGQGLEWMGWISPNSGGTNYAQKFQGWVTMTRDTSVSTAYMELSRLRFDDTAVYYCATESWVYGSGSYSSGAFDIWGQGTMVTVSS VL: QSVLTQPPSASGSPGQSVTISCTGTSSDVGGYDYVSWYQQHPGKAPKLMIYEVSKRPSGVPDRFSGSKSGNTASLTVPGLQAEDEADYYCTSYAGSNNFVFGGGTKLIVL
2. L12.cP07E10 (antibody, V domains shown, human IgG1) VH: EVQLVESGGGLIQPGGSLRLSCAASGFTVSSNYMSWVRQAPGKGLEWVSVIYSGGSTYYADSVKGRFTISRDNSKNTLYLQMNSLRAEDTAVYYCARDPYGYSSIWDGQGGHWGQGTLVTVSS VL: DVVMTQSPSSLSASVGDRVTITCQASQDISNYLNWYQQKPGKAPKLLIYDASNFATGVPSRFSGTGSGTDFTFTISSLQPEDIATYYCQQYDNLPITFGQGTRLEIK

// result
[1.9, 0.058]
